The measurements presented in this section are drawn from patent US4439426A.

assay: Stability in acidic environment at 25° C. (half-life of initial microbiological activity); type: physicochemical; conditions: aqueous solution, pH 2
observation_type: half-life (min)
Reply numerically in min, unit not repeated.

(Q) Supply half-life value. Item: CC[C@H]1OC(=O)[C@H](C)[C@@H](O[C@H]2C[C@@](C)(O)[C@@H](O)[C@H](C)O2)[C@H](C)[C@@H](O[C@@H]2O[C@H](C)C[C@H](N(C)C)[C@H]2O)[C@](C)(O)C[C@](C)(F)C(=O)[C@H](C)[C@@H](O)[C@H]1C
(A) 24

----------
Catalogue of compounds with associated MIC
system: Corynebacterium diphteriae LRP 24; test: Bacteriostatic power in solid medium (MIC); format: cell-based; details: Corynebacterium, LRP24; solid medium; read-out: Minimum inhibiting concentration
Provide only the numeric value, understood in mg/L.

CC[C@H]1OC(=O)[C@H](C)[C@@H](O[C@H]2C[C@@](C)(OC)[C@@H](O)[C@H](C)O2)[C@H](C)[C@@H](O[C@@H]2O[C@H](C)C[C@H](N(C)C)[C@H]2O)[C@](C)(O)C[C@](C)(F)C(=O)[C@H](C)[C@@H](O)[C@H]1C :: 0.006
CC[C@H]1OC(=O)[C@H](C)[C@@H](O[C@H]2C[C@@](C)(O)[C@@H](O)[C@H](C)O2)[C@H](C)[C@@H](O[C@@H]2O[C@H](C)C[C@H](N(C)C)[C@H]2O)[C@](C)(O)C[C@](C)(F)C(=O)[C@H](C)[C@@H](O)[C@]1(C)O :: 0.012
CC[C@H]1OC(=O)[C@H](C)[C@@H](O[C@H]2C[C@@](C)(O)[C@@H](O)[C@H](C)O2)[C@H](C)[C@@H](O[C@@H]2O[C@H](C)C[C@H](N(C)C)[C@H]2O)[C@](C)(O)C[C@](C)(F)C(=O)[C@H](C)[C@@H](O)[C@H]1C :: 0.006

(Q) For CC[C@H]1OC(=O)[C@H](C)[C@@H](O[C@H]2C[C@@](C)(OC)[C@@H](O)[C@H](C)O2)[C@H](C)[C@@H](O[C@@H]2O[C@H](C)C[C@H](N(C)C)[C@H]2O)[C@](C)(O)C[C@@H](C)C(=O)[C@H](C)[C@@H](O)[C@H]1C [Erythromycin B, reference compound] , write its MIC.
(A) 0.012

(Q) Please look at this compound and report its MIC: CO[C@H]1C[C@H](O[C@H]2[C@H](C)[C@@H](O[C@@H]3O[C@H](C)C[C@H](N(C)C)[C@H]3O)[C@@H](C)C[C@@]3(CO3)C(=O)[C@H](C)[C@@H](O)[C@@H](C)[C@@H](C)OC(=O)[C@@H]2C)O[C@@H](C)[C@@H]1O [Oleandomycin, reference compound]
(A) 0.097

----------
Test system: Streptococcus pneumoniae ATCC 6303 LRP 53
Experiment: Bacteriostatic power in solid medium (MIC)
Assay type: cell-based
Settings: Streptococcus pneumoniae, ATCC6303; solid medium; read-out: Minimum inhibiting concentration
Description: the bacteriostatic power, expressed as the minimum inhibiting concentration (MIC) against both aerobic and anaerobic, Gram positive and Gram negative, bacterial stocks: the related results are reported in the tables 2 and 3.
observation_type: MIC (µg/mL)
Please respond with the number in µg/mL and leave the unit unwritten.

Study these solved cases before continuing.
CC[C@H]1OC(=O)[C@H](C)[C@@H](O[C@H]2C[C@@](C)(O)[C@@H](O)[C@H](C)O2)[C@H](C)[C@@H](O[C@@H]2O[C@H](C)C[C@H](N(C)C)[C@H]2O)[C@](C)(O)C[C@](C)(F)C(=O)[C@H](C)[C@@H](O)[C@H]1C :: 0.024
CO[C@H]1C[C@H](O[C@H]2[C@H](C)[C@@H](O[C@@H]3O[C@H](C)C[C@H](N(C)C)[C@H]3O)[C@@H](C)C[C@@]3(CO3)C(=O)[C@H](C)[C@@H](O)[C@@H](C)[C@@H](C)OC(=O)[C@@H]2C)O[C@@H](C)[C@@H]1O [Oleandomycin, reference compound] :: 0.195
CC[C@H]1OC(=O)[C@H](C)[C@@H](O[C@H]2C[C@@](C)(O)[C@@H](O)[C@H](C)O2)[C@H](C)[C@@H](O[C@@H]2O[C@H](C)C[C@H](N(C)C)[C@H]2O)[C@](C)(O)C[C@](C)(F)C(=O)[C@H](C)[C@@H](O)[C@]1(C)O :: 0.024

(Q) Would you please give the reported MIC of CC[C@H]1OC(=O)[C@H](C)[C@@H](O[C@H]2C[C@@](C)(OC)[C@@H](O)[C@H](C)O2)[C@H](C)[C@@H](O[C@@H]2O[C@H](C)C[C@H](N(C)C)[C@H]2O)[C@](C)(O)C[C@](C)(F)C(=O)[C@H](C)[C@@H](O)[C@H]1C with Streptococcus pneumoniae ATCC 6303 LRP 53?
(A) 0.024

(Q) State, for Streptococcus pneumoniae ATCC 6303 LRP 53, measured MIC of the compound listed here: CC[C@H]1OC(=O)[C@H](C)[C@@H](O[C@H]2C[C@@](C)(OC)[C@@H](O)[C@H](C)O2)[C@H](C)[C@@H](O[C@@H]2O[C@H](C)C[C@H](N(C)C)[C@H]2O)[C@](C)(O)C[C@@H](C)C(=O)[C@H](C)[C@@H](O)[C@H]1C [Erythromycin B, reference compound]
(A) 0.024
